System: Streptococcus pneumoniae, R6
*1 amine or outer side, *2 acyl side, *3 side chain or, on linkers, in order; H or OH if unused. Where a SMILES comes first, the peptide text is derived from it. Bridges are numbered along the chain shown (N, C = ends). [ ]: non-standard residue; d: D form. The star is where a group is joined. ξ: configuration not given here. Phe(3,5-F2) = N[C@@H](Cc1cc(F)cc(F)c1)C(=O)O; NH(1-Me-indolin-5-yl) = CN1CCc2cc(N*)ccc21; Morpholine(3S-CO) = O=C(O)[C@@H]1COCCN1; Pro(4R-Me) = C[C@H]1CN[C@H](C(=O)O)C1; ξNMeThr = CNC(C(=O)O)[C@@H](C)O; aThr = C[C@H](O)[C@H](N)C(=O)O; CO = O=C([*:1])[*:2]
Measured MIC values are reported for all entries that follow.

Some solved cases for reference:
{"compound": "C[C@@H]1C[C@H]2C(=O)O[C@@H](C)[C@H](NC(=O)[C@H](Cc3cc(F)cc(F)c3)NC(=O)Nc3ccc4c(c3)CCN4C)C(=O)N3CCC[C@H]3C(=O)N(C)C([C@@H](C)O)C(=O)N[C@@H](C)C(=O)N2C1 (stereo partly drawn) [Compound 311] ({NH(1-Me-indolin-5-yl)-CO}-[Phe(3,5-F2)][aThr]P[ξNMeThr]A[Pro(4R-Me)]; ester 2-C)", "MIC": "0.078 µM"}
{"compound": "Cc1ccc(NC(=O)N[C@@H](Cc2ccccc2)C(=O)N[C@H]2COC(=O)[C@@H]3C[C@@H](C)CN3C(=O)[C@H](C)NC(=O)[C@@H]3CCCCN3C(=O)[C@@H]3CCCN3C2=O)cc1C [Compound 206]", "MIC": "< 0.2 µM"}

Now examine the next entry.
Notebook: pull reported MIC for Streptococcus pneumoniae, R6, entry C[C@@H]1C[C@H]2C(=O)O[C@@H](C)[C@H](NC(=O)[C@H](Cc3cc(F)cc(F)c3)NC(=O)Nc3ccc4c(c3)CCN4C)C(=O)N3CCC[C@H]3C(=O)N3CCOC[C@H]3C(=O)N[C@@H](C)C(=O)N2C1 [Compound 312] ({NH(1-Me-indolin-5-yl)-CO}-[Phe(3,5-F2)][aThr]P[Morpholine(3S-CO)]A[Pro(4R-Me)]; ester 2-C)
0.078 µM

* * *

Tested on: Staphylococcus aureus, USA 300
*1 amine or outer side, *2 acyl side, *3 side chain or, on linkers, in order; H or OH if unused. Where a SMILES comes first, the peptide text is derived from it. Bridges are numbered along the chain shown (N, C = ends). [ ]: non-standard residue; d: D form. The star is where a group is joined. ξ: configuration not given here. Phe(3,5-F2) = N[C@@H](Cc1cc(F)cc(F)c1)C(=O)O; NH(4-OCF3-phenyl) = FC(F)(F)Oc1ccc(N*)cc1; Morpholine(3S-CO) = O=C(O)[C@@H]1COCCN1; NH(4-Cl-2-F-phenyl) = Fc1cc(Cl)ccc1N*; Pro(4R-Me) = C[C@H]1CN[C@H](C(=O)O)C1; Hyp = O=C(O)[C@@H]1C[C@@H](O)CN1; NH(4-Et-phenyl) = CCc1ccc(N*)cc1; NMeT = CN[C@H](C(=O)O)[C@@H](C)O; Heptenoyl(2E) = CCCC/C=C/C(=O)*; aThr = C[C@H](O)[C@H](N)C(=O)O; NMeA = CN[C@@H](C)C(=O)O; CO = O=C([*:1])[*:2]; ξP = O=C(O)C1CCCN1
Here, each record is paired with measured MIC data.
# output: bare number, implied unit µM

{"compound": "Cc1ccc(NC(=O)N[C@@H](Cc2ccccc2)C(=O)N[C@H]2COC(=O)C3C[C@H](C)CN3C(=O)[C@H](C)NC(=O)C3CCCCN3C(=O)C3CCCN3C2=O)cc1 (some centres unmarked)", "MIC / µM": 3.1}
{"compound": "C[C@@H]1C[C@H]2C(=O)O[C@@H](C)[C@H](NC(=O)[C@H](Cc3cc(F)cc(F)c3)NC(=O)Nc3ccc(Cl)cc3F)C(=O)N3C[C@H](O)C[C@H]3C(=O)N3CCOC[C@H]3C(=O)N[C@@H](C)C(=O)N2C1 [Compound 316] ({NH(4-Cl-2-F-phenyl)-CO}-[Phe(3,5-F2)][aThr][Hyp][Morpholine(3S-CO)]A[Pro(4R-Me)]; ester 2-C)", "MIC / µM": 0.156}
{"compound": "C[C@@H]1NC(=O)[C@H](C)N(C)C(=O)C2CCCN2C(=O)[C@@H](NC(=O)[C@H](Cc2cc(F)cc(F)c2)NC(=O)Nc2ccc(OC(F)(F)F)cc2)[C@H](C)OC(=O)C2CCCN2C1=O (some centres unmarked) [Compound 27] ({NH(4-OCF3-phenyl)-CO}-[Phe(3,5-F2)][aThr][ξP][NMeA]A[ξP]; ester 2-C)", "MIC / µM": 0.2}
{"compound": "C[C@@H]1C[C@H]2C(=O)OC[C@H](NC(=O)[C@H](Cc3cc(F)cc(F)c3)NC(=O)Nc3ccc4c(c3)OCO4)C(=O)N3C[C@H](O)C[C@H]3C(=O)N3CCCCC3C(=O)N[C@@H](C)C(=O)N2C1 (some centres unmarked)", "MIC / µM": 2.5}
{"compound": "CCCC/C=C/C(=O)N[C@@H](Cc1cc(F)cc(F)c1)C(=O)N[C@@H]1C(=O)N2CCC[C@H]2C(=O)N(C)[C@@H]([C@@H](C)O)C(=O)N[C@@H](C)C(=O)N2C[C@H](C)C[C@H]2C(=O)O[C@H]1C [Compound 308] ({Heptenoyl(2E)}-[Phe(3,5-F2)][aThr]P[NMeT]A[Pro(4R-Me)]; ester 2-C)", "MIC / µM": 0.039}

Entry CCc1ccc(NC(=O)N[C@@H](Cc2cc(F)cc(F)c2)C(=O)N[C@@H]2C(=O)N3CCCC3C(=O)N(C)[C@@H](C)C(=O)N[C@@H](C)C(=O)N3CCCC3C(=O)O[C@H]2C)cc1 (some centres unmarked) [Compound 29] ({NH(4-Et-phenyl)-CO}-[Phe(3,5-F2)][aThr][ξP][NMeA]A[ξP]; ester 2-C) : reported MIC = ?
0.2

Just for reference, patent US10457707B2 is where these values come from.
